Where do these numbers come from? They come from patent US11040048B2.

Below, each entry is listed alongside its reported IC50.
- Experimental Target: cap-dependent endonuclease (CEN); RNP fraction containing PB1-PB2-PA complex (Influenza A virus)
- Assay Comment: biochemical
Assay Endpoint: IC50 (µM)

{"columns": ["Compound", "Assay Endpoint", "Reading Unit", "Measured Value"],
 "data": [
  ["O=C1c2c(O)c(=O)ccn2N([C@@H]2c3ccccc3CSc3ccccc32)[C@@H]2COCCN12 (racemic) [Reference 714]", "IC50", "µM", 0.095],
  ["O=C1c2c(O)c(=O)ccn2N([C@@H]2c3ccccc3SCc3cccc(Cl)c32)[C@H]2COCCN12 (racemic) [Reference 682]", "IC50", "µM", 0.104],
  ["O=C1c2c(O)c(=O)ccn2N([C@@H]2c3ccccc3SCc3cccc(Cl)c32)[C@@H]2COCCN12 (racemic) [Reference 684]", "IC50", "µM", 0.0197],
  ["O=C1c2c(O)c(=O)ccn2N([C@@H]2c3ccccc3CSc3ccccc32)[C@H]2COCCN12 (racemic) [Reference 715]", "IC50", "µM", 0.0255]
]}
